# credit: the supplement of paper PMC3724861

- Test system: Caupolican (Caup) homeodomain DNA-binding domain
- Sequence: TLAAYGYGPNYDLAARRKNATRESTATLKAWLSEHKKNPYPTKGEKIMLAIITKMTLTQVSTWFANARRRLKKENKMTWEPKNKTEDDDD
- Protocol notes: PBM E-score (8-mer, recovered from the published 9-mer minima) (E-score (dimensionless, -0.5 to 0.5)); Drosophila protein; higher = stronger relative binding preference, active = 0.31 or more
Only a selection was taken, and hits are over-represented in it overall. How many sequences the whole screen found active is unknown.
Hi there, I'd appreciate the recorded PBM E-score for every entry that follows.
// no unit, no text: just the number

**Q:** For the sequence CACCTACC , what PBM E-score is on record?
**A:** -0.0826

**Q:** I would be grateful if you could share the reported PBM E-score for CTTGGGTA .
**A:** -0.0204

**Q:** Look up PBM E-score for this sequence: GGTCCGAC
**A:** -0.0703

**Q:** Recorded PBM E-score of AAAGGTAC , please.
**A:** 0.12

**Q:** What does the record list as PBM E-score for CGAACGAC ?
**A:** 0.0606
